# Test system: CAKI-1
# PROCEDURE_TEXT: NCI tumour cell line growth inhibition, 48 h
Activity calls are given as the source filed them. Cut-off read from the data, not from the text of the source: active = GI50 up to about 1.1 µM and inactive = higher.
Response enum: t for active, f for inactive

See these solved cases before continuing.
C[C@@H]([C@H]1CC[C@@]2(C)[C@@H]3CC[C@@H]4C(=CC3=CC[C@]12C)CC[C@H](N(C)C)C4(C)C)N(C)C; f
NC(CCC(=O)NC(CSC(=O)N(O)c1ccccc1)C(=O)NCC(=O)O)C(=O)O (stereo not given); f
CCOC(=O)Nc1cc2c(c(N)n1)N=C(c1ccccc1)CN2; t
O=C(O)CP(=O)(O)O; f
CCCOC(=O)C1CCC(=O)N1C(=O)C(C)Cl (stereo not given); f
CCOC(=O)C1=C(O)C(=O)c2cc(OC)ccc2C1=O; f
CCN(CC)CCOCC1CCCN2CCCCC12 (stereo not given); f
CC1OC(OC2CCCc3c(O)c4c(c(O)c32)C(=O)c2ccccc2C4=O)CC(N)C1O (stereo not given); f

Lab log entry: O=C(Nc1ccc(Cl)cc1)[C-](C(=O)c1ccc(Br)cc1)[n+]1cccc(-c2ccc(Cl)cc2)n1 — outcome as called in the assay?
f

Lab log entry: COC(=O)CNC(=O)CNC(=O)CSc1nnc(COc2ccc(Cl)cc2)n1-c1ccccc1 — outcome as called in the assay?
f

###

# Test system: SN12C
# PROCEDURE_TEXT: NCI tumour cell line growth inhibition, 48 h
Active and inactive are the calls of the source. No stated cut-off is given here; in the data, active = GI50 up to about 1.1 µM and inactive = higher.
GI50 values for the molecules below.

O=c1cc(-c2ccccc2)[nH]c2ccc(S)cc12; 18.3 µM (inactive)
O=C1CCC(c2ccccc2)(c2ccccc2)CC1; 38.1 µM (inactive)
CCOP(=O)(/C=C/n1ccc(N)nc1=O)OCC; > 100 µM (inactive)
CC1=CC(=O)/C(=C/n2c(=S)[nH]c3cc(C)ccc32)C(=O)O1; > 100 µM (inactive)
CC/C=C/C(CC)C/C(C)=C\[C@]1(CC)C[C@H](CC)[C@H](CC(=O)O)OO1 (stereo partly specified); 1.59 µM (inactive)

Then there is this molecule:
Please look up its GI50: O=C(c1cccc2ccccc12)C1(Br)S(=O)(=O)OCCOS1(=O)=O
> 100 µM (inactive)

###

# System: SNB-78
# PROCEDURE_TEXT: NCI tumour cell line growth inhibition, 48 h
Activity calls are given as the source filed them. No stated cut-off is given here; in the data, active = GI50 up to about 1.1 µM and inactive = higher.
Response enum: active, inactive

See these solved cases before continuing.
Cc1ccc2nc3c(C(=O)NCCN(C)C)cccc3cc2c1; inactive
O=C1c2cccc3cc([N+](=O)[O-])cc(c23)C(=O)N1CCCN1CCN(CCCN2C(=O)c3cccc4cc([N+](=O)[O-])cc(c34)C2=O)CC1; active

Lab log entry: CCOc1ccc(O)cc1[P+](c1ccccc1)(c1ccccc1)c1ccccc1 — outcome as called in the assay?
inactive

Lab log entry: C[N+](C)(C)CC(=O)N/N=C(\C(=O)NC1=C(Cl)C(=O)c2ccccc2C1=O)C(C#N)c1nc(-c2ccc([N+](=O)[O-])cc2)cs1 (centres undefined) — outcome as called in the assay?
inactive

Lab log entry: Cc1ccc2nc(NC(=O)C(=O)CC(=O)c3cccc4ccccc34)sc2c1 — outcome as called in the assay?
inactive

Lab log entry: Cc1c(N2CCOCC2)nc2ccc(Cl)cc2c1-c1ccccc1 — outcome as called in the assay?
inactive

Lab log entry: N=c1oc2c(O)c(O)ccc2cc1C(N)=O — outcome as called in the assay?
inactive

Lab log entry: CCC1NCC(=O)c2c1[nH]c1ccccc21 (centres undefined) — outcome as called in the assay?
inactive

Lab log entry: CC(=O)Nc1ccc(C(=O)NN2C(=O)C(Cl)C2c2ccc([N+](=O)[O-])cc2)cc1 (centres undefined) — outcome as called in the assay?
inactive

Lab log entry: C/C(=N\N=C(\N)S)c1ccc(Oc2ccccc2)cc1 — outcome as called in the assay?
inactive

Lab log entry: Cc1c(O)c(=O)ccn1CCO — outcome as called in the assay?
inactive

Lab log entry: CC(=O)OC1C[C@H]2C(OC(=O)c3ccccc3)C3C4(OC(C)=O)COC4C[C@H](OC(C)=O)[C@@]3(C)C(OC(C)=O)[C@H](OC(C)=O)C(=C1C)C2(C)C (some centres undefined) — outcome as called in the assay?
inactive

Lab log entry: Cc1c(C(=O)c2ccccc2C(=O)O)c2ccccc2n1C — outcome as called in the assay?
inactive

Lab log entry: CC(C)N(C(=O)C12C3C4C1C1C4(C#N)C3C12C(=O)O)C(C)C (centres undefined) — outcome as called in the assay?
inactive

###

GI50 values for the compounds below.
# System: IGROV-1
# PROCEDURE_TEXT: NCI tumour cell line growth inhibition, 48 h
Activity calls are given as the source filed them. Cut-off read from the data, not from the text of the source: active = GI50 up to about 1.1 µM and inactive = higher.

O=C(/C=C/c1ccc(O)c(-c2cc(C(=O)/C=C/c3ccc(O)cc3)c(O)cc2O)c1)c1ccc(O)cc1O; 24.5 µM (inactive)
COc1ccc(CCNC(=O)Cc2ccccc2CCO)cc1OC; > 100 µM (inactive)

Please look up its GI50: COC(=O)c1c(-c2ccccc2)sc(-c2cccc3ccccc23)c1C(=O)OC
> 100 µM (inactive)

Please look up its GI50: Cc1ccccc1Nc1nc(NNC(=O)Cc2ccccc2)nc(NNC(=O)c2ccncc2)n1
> 10 µM (inactive)

Please look up its GI50: CCCOP1(=O)C=CC(Cl)=C(C)C1 (stereo not given)
97.7 µM (inactive)

Please look up its GI50: O=C1CN2C(Cl)(Cl)C2(c2ccccc2)c2cc(Cl)ccc2N1CC(F)(F)F (stereo not given)
26.8 µM (inactive)

Please look up its GI50: C=C(CN(C)C)C(=O)c1ccc(C)cc1C
7.23 µM (inactive)

###

# Test system: SNB-19
# PROCEDURE_TEXT: NCI tumour cell line growth inhibition, 48 h
Active and inactive are the calls of the source. No stated cut-off is given here; in the data, active = GI50 up to about 1.1 µM and inactive = higher.
Response enum: active, inactive

See these solved cases before continuing.
COc1cc(NCC(C#N)C#N)ccc1/N=N/c1ccc([N+](=O)[O-])cc1; inactive
CC1OC1C(=O)C1(O)C(C)C(O)C23OC2(C(O)c2c(O)cccc2C3=O)C1O (stereo unspecified); active
Cc1nc(-c2ccc(Cl)cc2)cn2c1nc1ccccc12; inactive
O=C(C1OC1c1cccc([N+](=O)[O-])c1)C12CC3CC(CC(C3)C1)C2 (stereo unspecified); inactive
O=C(CC1C(=O)Nc2ccccc2S1(=O)=O)Nc1cccc(Cl)c1 (stereo unspecified); inactive
COc1ccc(Cc2ccccc2C(=O)O)c2ccccc12; inactive
Cc1ccc2c(c1)[nH]c(=S)n2C=C1C(=O)CC(C)(C)CC1=O; inactive
COc1ccc(/C(Cl)=C/c2cc(OC)ccc2OC)cc1; inactive

Lab log entry: COc1ccc(C2Oc3c(cccc3OC)C=C2[N+](=O)[O-])cc1OC (stereo unspecified) — outcome as called in the assay?
inactive

Lab log entry: OCCCSc1ccccc1SCCCO — outcome as called in the assay?
inactive

Lab log entry: NCc1ccccc1.O=C(O)NCc1ccccc1 — outcome as called in the assay?
inactive

###

# Tested on: T47D
# PROCEDURE_TEXT: NCI tumour cell line growth inhibition, 48 h
The source made the active and inactive calls. Cut-off read from the data, not from the text of the source: active = GI50 up to about 1.1 µM and inactive = higher.
Response enum: 1 (yes) = active, 0 (no) = inactive

See these solved cases before continuing.
Cc1c(C#N)c2nnn(-c3ccc([N+](=O)[O-])cc3)c(=O)n2c1-c1ccccc1; 0 (no)
COC(=O)c1ccc2n1C1CC3CC(CC2C3)C1; 0 (no)
CCOC(=O)C(CO)c1nc2c([nH]c1=O)c(=O)n(C)c(=O)n2C (stereo not drawn); 0 (no)
CCSCCCCC(c1ccc(O)cc1)C(C)(CC)c1ccc(O)cc1 (stereo not drawn); 0 (no)
O=C1OC(c2ccccc2)=N/C1=C\c1ccc(Br)cc1; 0 (no)

Lab log entry: COc1ccc2ccc3oc(=O)c(C)cc3c2c1 — outcome as called in the assay?
0 (no)

Lab log entry: CN(N=O)C(=N)NC(=O)c1ccccc1 — outcome as called in the assay?
0 (no)

Lab log entry: O=S1(=O)C[C@@H](NCc2ccccc2)[C@H](NCc2ccccc2)C1 — outcome as called in the assay?
0 (no)

Lab log entry: COC(=O)/C=C/c1ccc2nncnc2c1.COC(=O)/C=C\c1ccc2nncnc2c1 — outcome as called in the assay?
0 (no)

Lab log entry: CCOC(=O)c1c2c(n(-c3ccc(OC)cc3)c1C)C(=O)C(=O)c1ccccc1-2 — outcome as called in the assay?
1 (yes)

Lab log entry: CC(=O)O[C@H]1CC[C@H]2[C@@H]3CCC4=CC(=O)C=C[C@]4(O)[C@H]3CC[C@]12C — outcome as called in the assay?
0 (no)

Lab log entry: COC1CC(COCc2ccccc2)CC(OC)O1 (stereo not drawn) — outcome as called in the assay?
0 (no)

Lab log entry: CC(=O)NC1C(OCc2ccccc2)OC(CO)C(O)C1OCC(=O)NC(C)C(=O)NC(CCC(=O)NCCCCCC(=O)Nc1ccc2c(c1)CN1C(=O)c3ccccc3C1=N2)C(N)=O (stereo not drawn) — outcome as called in the assay?
0 (no)
